// data source = the RNAGym collection of RNA variant scans (doi:10.7554/elife.90254)

B1: OR4K15 (parent)
chain: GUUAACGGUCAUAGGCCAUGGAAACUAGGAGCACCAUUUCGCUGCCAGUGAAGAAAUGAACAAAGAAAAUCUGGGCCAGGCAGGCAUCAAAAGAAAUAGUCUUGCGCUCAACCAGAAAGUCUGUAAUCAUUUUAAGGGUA

# Variants of: B1
# measurementDescription: self-cleavage, relative activity (ratio to wild type); higher = more cleavage; in vitro, sequencing; the parent is a self-cleaving ribozyme
self-cleavage below 1 gives false; self-cleavage at or above it gives true.

Is it the case that GUUAACGGUCAUAGGCCAUGGAAACUAGGAGCACCAUUUCGCUGCCAGUGAAGAAAUGAGCAAAGAAAAUCUGGGCCAGGCAGGCAUCAAAAGAAAUAGUCUUGCGCUCCACCAGAAAGUCUGUAAUCAUUUUAAGGGUA [A60G A110C] has self-cleavage reaching or exceeding 1?
false

Could you tell me if the measured self-cleavage of GUUAACGGGCAUAGGCCAUGGAAACUAGGAGCACCAUUUCGCUGCCAGUGAAGAAAUGAACAAAGAAAAUCUGGGCCAGGCAGGCAUCAAAAGAAGUAGUCUUGCGCUCAACCAGAAAGUCUGUAAUCAUUUUAAGGGUA [U9G A96G] reaches 1 or more?
true

State whether the measured self-cleavage reaches 1, counting equality as reaching it, for GUUAACGGUCAUAGGCCAUGGAAACUAGGAGCACCAUUUCGCUGCCAGUGAAGAAAUGAACAAAGGAAAUCUGGGCCAGGCACGCAUCAAAAGAAAUAGUCUUGCGCUCAACCAGAAAGUCUGUAAUCAUUUUAAGGGUA [A66G G83C]
false

Kindly determine if self-cleavage recorded for GUUAACGGUCAUAGGCCAUGGAAGCUAGGAGCACCAUUUCGCUGCCAGUGCAGAAAUGAACAAAGAAAAUCUGGGCCAGGCAGGCAUCAAAAGAAAUAGUCUUGCGCUCAACCAGAAAGUCUGUAAUCAUUUUAAGGGUA [A24G A51C] is above or exactly 1.
false

Does self-cleavage meet or surpass 1 for GUUAACGGUCAUAGGCCAAGGAAACUAGGAGCACCAUUUCGCUGCCAGUGAAGAAAUGAACAAAGAAAAUCUGGGCCAGGCAGGCAUCAAAAGAAAUAGCCUUGCGCUCAACCAGAAAGUCUGUAAUCAUUUUAAGGGUA [U19A U100C] ?
true

Does the reported self-cleavage for GUUAACGGUCAUAGGCCAUGGAAACUAGGAGCACCAUUUCGCUGCCAGUGGAGAAAUGAACAAAGAAAAUCUGGGCCAGGCAGGCAUCAAAAGAAAUAGUCUUGCGCUCAACCAGAAAGUCUGGAAUCAUUUUAAGGGUA [A51G U124G] fall at or above the 1 mark?
true

Does the variant GUUAACGGUCAUAGGCCAUGGAAACUAGGAGCACCAUUUCGCUGCCAGUGAAGUAAUGAACAAAGAAAAUCUGGGCCCGGCAGGCAUCAAAAGAAAUAGUCUUGCGCUCAACCAGAAAGUCUGUAAUCAUUUUAAGGGUA [A54U A78C] have recorded self-cleavage that is 1 or more?
false

Does the reported self-cleavage for GUUAACGGUCAUAGGCCAUGGAAACUAGGAGCACCAUUUCGCCGCCAGUGAAGAAAUGAACAAAGAAAAUCUGGGCCAGGCAGGCAUCAAAAGAAAUAGUCUUGCGCUCAACCAGAAAGUCCGUAAUCAUUUUAAGGGUA [U43C U122C] fall at or above the 1 mark?
false

Does the reported self-cleavage for GUUAACGGUCAUAGCCCAUGGAAACUAGGAGCACCAUUUCGCCGCCAGUGAAGAAAUGAACAAAGAAAAUCUGGGCCAGGCAGGCAUCAAAAGAAAUAGUCUUGCGCUCAACCAGAAAGUCUGUAAUCAUUUUAAGGGUA [G15C U43C] fall at or above the 1 mark?
true

Say whether GUUAACGGUCAUAGGCCAUGGAAAUUAGGAGCACCAUUUCGCUGCCAGUGAAGAGAUGAACAAAGAAAAUCUGGGCCAGGCAGGCAUCAAAAGAAAUAGUCUUGCGCUCAACCAGAAAGUCUGUAAUCAUUUUAAGGGUA [C25U A55G] shows self-cleavage of 1 or more.
true

Would you say GUUAACGGUCAUAGGCCAUGGAAACUAGGAGCGCCAUUUCGCUGCCAGUGAAGAAAUGAACAAAGAAAAUCUGGGCCAGGCAGGCAUCUAAAGAAAUAGUCUUGCGCUCAACCAGAAAGUCUGUAAUCAUUUUAAGGGUA [A33G A89U] shows self-cleavage at minimum 1?
true

Check if self-cleavage >= 1 (inclusive). Item: GUUAACGGUCAUAGGCCAAGGAAACUAGGAGCACCAUUUCGCUGCCAGUGAAGAAAUGAACAAAGAAAAUCUGGGCCAGGCAGGCAUCAAGAGAAAUAGUCUUGCGCUCAACCAGAAAGUCUGUAAUCAUUUUAAGGGUA [U19A A91G]
true

Test whether the variant GGUAACGGUCAUAGGCCAUGGAAACUAGGAGCACCAUUUCGCUGCCAGUGAAGAAAUGAACAAAGAAAAUCUGGGCCAGGCAGGCAUCAAAAGAAAUAGUCUCGCGCUCAACCAGAAAGUCUGUAAUCAUUUUAAGGGUA [U2G U103C] records self-cleavage of 1 or higher.
false

Given GUUAACGGUCAUAGGCCAUGGAAACUAGGAGCACCAUCUCGCUGCCAGUGAAGAAAUGAACAAAGAAAAUCUGGGCCAGGCAGGCAUCAAAAGAAACAGUCUUGCGCUCAACCAGAAAGUCUGUAAUCAUUUUAAGGGUA [U38C U97C] , state whether its self-cleavage is at least 1.
true

Could you verify whether the entry GUUAACGGUCAUAGGCCAUGGAAACUAGGAGCACCAUUUCGCUGCCAGUGAAGAAAUGAACAAAGAAAAUCUGGGCCAGGCAGGCAUCAAAAGAAAUAGUCUUGCGCUCAACCUGAAAGUCUGUAAUCAUUUUAAGGGUU [A114U A140U] shows self-cleavage of no less than 1?
false

Is self-cleavage at least 1? Consider GUUAACGGUCAUAGGCCAUGGAAACUAGGAGCACCAUUUCGCUGGCAGUGAAGAAAUGAACAAAGAAAAUCUGGGCCAGGCAGGCAUCAAAAGAAAUAGUCUUGCGCUCAACCAGGAAGUCUGUAAUCAUUUUAAGGGUA [C45G A116G]
false

Dear colleague, could you confirm whether GUUAACGGUCAUAGGCCAUGGAAACUAGGAGCACCAUUUCGCUACCAGUGAAGAAAUGAACACAGAAAAUCUGGGCCAGGCAGGCAUCAAAAGAAAUAGUCUUGCGCUCAACCAGAAAGUCUGUAAUCAUUUUAAGGGUA [G44A A63C] has self-cleavage at or above 1?
true

Has GUUAACGGUCAUAGGCCAUGGAAACUAGGAGCACCAUUUCGCUGCCAGUGAAGAAAUGAACAAAGAAAAUCUGGACCAGGCAGGCAUCAAAAGAAAUAGUCUUGUGCUCAACCAGAAAGUCUGUAAUCAUUUUAAGGGUA [G75A C105U] a recorded self-cleavage greater than or equal to 1?
false

Please indicate if the recorded self-cleavage for GUUAACGGUCAUAGGCCAUGGAAACUAGGAGCACCAUUUCGCUGCCAGUGAAGAAAUGAACAAAGAAAAUCUGGGCCAGGCAGGCAUCAAAAGAAAUAGUCUAGCGCUCAACCAGAAAGUCUGUAAUCAUUUUAAGGAUA [U103A G138A] meets or exceeds 1.
false

Would you say GUUAACGGUCAUAGGCCAUGGAAACUAGGAGCACUAUUUCGCUGCCAGUGAAGAAAUGAACAAAGAAAAUCUGGGCCAGGCAGGCAUCAAAAGAAAUAGUCUUGCGCUCAGCCAGAAAGUCUGUAAUCAUUUUAAGGGUA [C35U A111G] shows self-cleavage at minimum 1?
false

Determine whether this variant has self-cleavage no lower than 1: GUUAACGGUCAUAGGCCAUGGAAACUAGGAGCACCAUUUCGCUGCCAGUGAAGAAAUGAACAAAGAAAAUCUGGGCCAGGCAGGCAUCAAAAGAAAUAGUCUUGCGCUCUACCAGAAAGUCUGUAAUCAUUUUAGGGGUA [A110U A135G]
true

State whether the measured self-cleavage reaches 1, counting equality as reaching it, for GUUAACGGUCAUAGGCCAUGGAAACUAGGAGCACCAUUUCGCUGCCAGUGAAGGAAUGAACAAAGAAAAUCUGGGCCAGGCAGGCAUCAAAAGAAAUAGUCUUGAGCUCAACCAGAAAGUCUGUAAUCAUUUUAAGGGUA [A54G C105A]
false

Say whether GUUAACGGUCAUAGGCCAUGGAAACUAGGAGCACCAUUUCGCUGCCAGUGAAGAAAUGAACAAAGAAAAUCUGGGCCAGGCAGGCAUCAAAAGAUAUAGUCUUGCGCUCAACCAGAAAGUCUGUAGUCAUUUUAAGGGUA [A95U A126G] shows self-cleavage of 1 or more.
true

Check this variant for self-cleavage at or above 1: GUUAACGGUCAUAGGCCAUGGAAACUAUGAGCACCAUUUCGCUGCCAGAGAAGAAAUGAACAAAGAAAAUCUGGGCCAGGCAGGCAUCAAAAGAAAUAGUCUUGCGCUCAACCAGAAAGUCUGUAAUCAUUUUAAGGGUA [G28U U49A]
true
